Molecular target: MCL-1/Bim (Homo sapiens (Human), UniProt Q07820)
Sequence (Q07820 171-327): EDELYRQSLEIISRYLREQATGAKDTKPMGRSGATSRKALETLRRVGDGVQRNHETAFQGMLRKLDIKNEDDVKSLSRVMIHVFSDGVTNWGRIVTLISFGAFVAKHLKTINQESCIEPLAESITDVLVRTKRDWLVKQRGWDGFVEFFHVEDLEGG
Test: MCL-1/Bim Binding AlphaLISA Assay
Conditions: 6xHis-Mcl-1 (171-327) and biotinylated Bim peptide (51-76)
RECORDED_METRIC: pIC50
// pIC50 is dimensionless: -log10 of concentration (M)

Give the reported value of pIC50 for this record: "CO[C@H]1/C=C/CCC[S@@](=O)(NC(=O)NCc2ccc(F)cc2)=NC(=O)c2ccc3c(c2)N(C[C@@H]2CC[C@H]21)C[C@@]1(CCCc2cc(Cl)ccc21)CO3"
8.85

Give the reported value of pIC50 for this record: CCC(=O)NS1(=O)=NC(=O)c2ccc3c(c2)N(C[C@@H]2CC[C@H]2[C@@H](OC)/C=C/CCC1)C[C@@]1(CCCc2cc(Cl)ccc21)CO3 (single isomer, unassigned)
9.15

Give the reported value of pIC50 for this record: "CO[C@H]1/C=C/C[C@H](C)[C@@H](C)[S@](=O)(NC(=O)CCc2ccnn2C)=NC(=O)c2ccc3c(c2)N(C[C@@H]2CC[C@H]21)C[C@@]1(CCCc2cc(Cl)ccc21)CO3"
8.85

---

Test system: SKBR3 cells
Test: SKBR3 Cell Viability Assay
Assay type: cell-based
Conditions: 72 hours, CellTiter Glo, read-out: MCL-1 CV SKBR3 EC50
RECORDED_METRIC: pEC50
// pEC50 is dimensionless: -log10 of concentration (M)

Please report pEC50 with SKBR3 cells for item CO[C@H]1/C=C/CCC[S@@](=O)(NC(=O)Cc2ncccn2)=NC(=O)c2ccc3c(c2)N(C[C@@H]2CC[C@H]21)C[C@@]1(CCCc2cc(Cl)ccc21)CO3 [Example 30] .
5.74

Please report pEC50 with SKBR3 cells for item CO[C@H]1/C=C/CCC[S@@](=O)(NC(=O)CCc2ccnn2C)=NC(=O)c2ccc3c(c2)N(C[C@@H]2CC[C@H]21)C[C@@]1(CCCc2cc(Cl)ccc21)CO3 [Example 22] .
6.59

Please report pEC50 with SKBR3 cells for item CO[C@H]1/C=C/CCC[S@@](=O)(NC(=O)CC(F)(F)F)=NC(=O)c2ccc3c(c2)N(C[C@@H]2CC[C@H]21)C[C@@]1(CCCc2cc(Cl)ccc21)CO3 [Example 23] .
5.84

Please report pEC50 with SKBR3 cells for item CO[C@H]1/C=C/CCC[S@@](=O)(NC(=O)CCS(C)(=O)=O)=NC(=O)c2ccc3c(c2)N(C[C@@H]2CC[C@H]21)C[C@@]1(CCCc2cc(Cl)ccc21)CO3 [Example 28] .
5.08

Please report pEC50 with SKBR3 cells for item CO[C@H]1/C=C/CCC[S@@](=O)(NC(=O)C2COC2)=NC(=O)c2ccc3c(c2)N(C[C@@H]2CC[C@H]21)C[C@@]1(CCCc2cc(Cl)ccc21)CO3 [Example 24] .
6.05

Please report pEC50 with SKBR3 cells for item CO[C@H]1/C=C/C[C@H](C)C[S@@](=O)(NC(=O)N2C[C@@H](OC)[C@@H]2C)=NC(=O)c2ccc3c(c2)N(C[C@@H]2CC[C@H]21)C[C@@]1(CCCc2cc(Cl)ccc21)CO3 [Example 253] .
7.41

Please report pEC50 with SKBR3 cells for item COC1CCn2cc(C(=O)N[S@@]3(=O)=NC(=O)c4ccc5c(c4)N(C[C@@H]4CC[C@H]4[C@@H](OC)/C=C/C[C@H](C)C3)C[C@@]3(CCCc4cc(Cl)ccc43)CO5)cc2C1 (stereo partly shown) [Example 175] .
7.47
